system: H1 or H9 human embryonic stem cells; test: Activin A bioassay: differentiation of human embryonic stem cells to definitive endoderm, cell number and SOX17 intensity by high content analysis (96-well, four days); format: cell-based; details: supernatant concentration 10x, assay dilution 1:20;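 also: total fluorescence of the cell multiplied by cell area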
quantityMeasured: Sox 17 Intensity average
Just the number, please.

Which Sox 17 Intensity average reading was recorded for the molecule ACTN10: activin A variant peptide, SEQ ID 11 (protein) GLECDGKVNYCCKKQDFVSFKDIGWNDWIIAPSGYHANRCSGLCPSHIAGTSGSSLSFHSTVINHYRMRGHSPFAQMGSCCIPTKLRPMSMLYYDDGQNIIKKDIQNMIVEECGCS ?
1.08E+06

What Sox 17 Intensity average value was documented for this molecule, ACTN90: activin A variant peptide, SEQ ID 91 (protein) GLECDGKVNICCKKQSFGQTKDIGWNDWIIAPSGYHGGSCSGECPSHIAGTSGSSLSFHSTVINHYRMRGHSPFANLKSCCSPTKLRPMSMLYYDDGQNIIKKDIQNMKVEECGCT ?
4.13E+05
